- Test protocol: Saturation shake-flask aqueous solubility, gravimetric determination
- Details: water, 25 °C, thermodynamic from solid, Experimental Log S, single replicate of triplicate
Below, each of the compounds is paired with its reported solubility at 48 h value.
Enter your answer as a number in mM; do not include the unit.

Nc1nc2c(c(=O)[nH]1)CC=N2; 14.1
OC[C@H]1O[C@@H](n2cnc3c(O)ncnc32)C[C@@H]1O; 40.4
CC(=C(CCO)SSC(CCO)=C(C)N(C=O)Cc1cnc(C)nc1N)N(C=O)Cc1cnc(C)nc1N [Thiamine disulfide]; 3.5

-- ask What value of measured solubility at 48 h is listed for OC[C@@H](O)CN1CCN(c2ccccc2)CC1 [Levodropropizine, reference compound] ?
-- reply 145

---

Below, each of the molecules is paired with its reported Experimental Class value.
- Test protocol: Saturation shake-flask aqueous solubility, gravimetric determination
- Details: European Pharmacopoeia solubility class from the experimental solubility

-- ask What value of measured Experimental Class is listed for Nc1nc2c(c(=O)[nH]1)CC=N2 [7‐Deazaguanine] ?
-- reply 4 (Slightly soluble (4))

-- ask N[C@@H](Cc1ccc(I)cc1)C(=O)O [4‐Iodo‐L‐phenylalanine] , same question.
-- reply 5 (Very slightly soluble (5))

-- ask CC(=C(CCO)SSC(CCO)=C(C)N(C=O)Cc1cnc(C)nc1N)N(C=O)Cc1cnc(C)nc1N [Thiamine disulfide] , same question.
-- reply 4 (Slightly soluble (4))

-- ask OC[C@H]1O[C@@H](n2cnc3c(O)ncnc32)C[C@@H]1O [Deoxyinosine] , same question.
-- reply 3 (Sparingly soluble (3))

-- ask Cc1cc(=O)oc2cc(O[C@@H]3O[C@H](CO)[C@@H](O)[C@H](O)[C@H]3O)ccc12 [4‐methylumbelliferyl β‐D‐glucoside] , same question.
-- reply 4 (Slightly soluble (4))

-- ask OC[C@@H](O)CN1CCN(c2ccccc2)CC1 [Levodropropizine, reference compound] , same question.
-- reply 2 (Soluble (2))

---

- Test protocol: Saturation shake-flask aqueous solubility, gravimetric determination
- Details: water, 25 °C, thermodynamic from solid, Experimental Log S, shaken 48 h, triplicate; Log S = base-10 logarithm of moles per liter
Below, each of the molecules is paired with its reported solubility at 48 h value.
Enter your answer as a number in mM; do not include the unit.

Solved cases (3 shown):
Nc1nc2c(c(=O)[nH]1)CC=N2; 16.6
CC(=C(CCO)SSC(CCO)=C(C)N(C=O)Cc1cnc(C)nc1N)N(C=O)Cc1cnc(C)nc1N [Thiamine disulfide]; 4.11
OC[C@@H](O)CN1CCN(c2ccccc2)CC1 [Levodropropizine, reference compound]; 145

-- ask What value of measured solubility at 48 h is listed for `N[C@@H](Cc1ccc(I)cc1)C(=O)O` ?
-- reply 1.81

-- ask `OC[C@H]1O[C@@H](n2cnc3c(O)ncnc32)C[C@@H]1O` , same question.
-- reply 40.6

-- ask CC(=O)SCC(Cc1ccccc1)C(=O)NCC(=O)OCc1ccccc1 (stereo not drawn) [Racecadotril, reference compound] , same question.
-- reply 0.107

---

- Test protocol: Saturation shake-flask aqueous solubility, gravimetric determination
- Details: water, 25 °C, thermodynamic from solid, Experimental Log S, averaged over triplicate
Below, each of the compounds is paired with its reported solubility at 48 h value.
Enter your answer as a number in mM; do not include the unit.

-- ask What value of measured solubility at 48 h is listed for `Nc1nc2c(c(=O)[nH]1)CC=N2` ?
-- reply 16.6

-- ask `OC[C@H]1O[C@@H](n2cnc3c(O)ncnc32)C[C@@H]1O` , same question.
-- reply 40.6

-- ask OC[C@@H](O)CN1CCN(c2ccccc2)CC1 [Levodropropizine, reference compound] , same question.
-- reply 145

-- ask CC(=C(CCO)SSC(CCO)=C(C)N(C=O)Cc1cnc(C)nc1N)N(C=O)Cc1cnc(C)nc1N [Thiamine disulfide] , same question.
-- reply 4.11

-- ask CC(=O)SCC(Cc1ccccc1)C(=O)NCC(=O)OCc1ccccc1 (centres unmarked) [Racecadotril, reference compound] , same question.
-- reply 0.107

---

- Test protocol: Saturation shake-flask aqueous solubility, gravimetric determination
- Details: water (saturated aqueous solution), 25 °C, water, thermodynamic from solid
Entry flag: 1 if solubility thermodynamic at 48 h reaches 10000 µg/mL; -1 if it does not.

-- ask Please indicate if the recorded solubility thermodynamic at 48 h for `Nc1nc2c(c(=O)[nH]1)CC=N2` meets or exceeds 10000 µg/mL.
-- reply -1

-- ask CC(=C(CCO)SSC(CCO)=C(C)N(C=O)Cc1cnc(C)nc1N)N(C=O)Cc1cnc(C)nc1N [Thiamine disulfide] , same question.
-- reply -1

-- ask CC(=O)SCC(Cc1ccccc1)C(=O)NCC(=O)OCc1ccccc1 (centres unmarked) [Racecadotril, reference compound] , same question.
-- reply -1

-- ask OC[C@@H](O)CN1CCN(c2ccccc2)CC1 [Levodropropizine, reference compound] , same question.
-- reply 1
